System: K562
assay overview: NCI tumour cell line growth inhibition, 48 h
Active and inactive are the calls of the source. No stated cut-off is given here; in the data, active = GI50 up to about 1.1 µM and inactive = higher.
measurement kind: GI50

[
  {
    "compound": "NCCCCNCCCNC(=O)c1nc(-c2csc(CCN)n2)sc1Cl",
    "endpoint value": "49.5 µM (inactive)"
  },
  {
    "compound": "CCOC(=O)c1c(SC)nc(-c2ccc(Cl)cc2)sc1=N.[O-][Cl+3]([O-])([O-])O",
    "endpoint value": "34.4 µM (inactive)"
  }
]

C[C@@H]1OC(=O)C[C@H]2CC(=O)N(CCC3CN(C(=O)OCc4ccccc4)c4ccccc43)C[C@@H]21 (stereo not given in full) has a reported GI50 of > 100 µM (inactive)

response.value for S=c1nc(N2CCCCC2)c2cn[nH]c2[nH]1 (field: GI50) = 29.9 µM (inactive)

// GI50 value for O=C(NCCN(CCNC(=O)c1cccc(=O)n1O)CCN(CCNC(=O)c1cccc(=O)n1O)CCNC(=O)c1cccc(=O)n1O)c1cccc(=O)n1O : > 100 µM (inactive)
